target or test system: human Retinoid X Receptor beta (RXRb), RXRB (gene 6257)
measurement notes: ATG_RXRb_TRANS: Attagene TRANS-FACTORIAL HepG2 Assay for human Retinoid X Receptor beta (RXRb) (AID 2283013)
Records with an inconclusive call do not appear. Active and inactive are the calls of the source. The calls were made as follows: active = hit-call score of the fitted dose curve at least 0.9, where 1 is the maximum; inconclusive = response in the unintended direction; inactive = score below 0.9.
Returns: one label drawn from active, inactive

Some entries whose results are on file:
Cc1ccc(O)c(-n2nc3ccccc3n2)c1 | active
Cc1cc(C)c(O)c(C(C)(C)C)c1 | active
Cc1cc(O)c(C(C)(C)C)cc1C(C)(C)C | active
OCCC(O)CO (centres undefined) | inactive
O=C(O)CCC(F)(F)C(F)(F)C(F)(F)C(F)(F)C(F)(F)C(F)(F)C(F)(F)F | active
CC1=CCC(=O)O1 | inactive
O=C(Cl)C(F)(F)C(F)(F)C(F)(F)C(F)(F)C(F)(F)C(F)(F)F | inactive
O=c1cccc[nH]1 | inactive
O=C(O)C(F)(F)C(F)(F)C(F)(F)C(F)(F)C(F)(F)C(F)(F)C(F)F | inactive
CO[Si](C)(CCC(F)(F)C(F)(F)C(F)(F)C(F)(F)C(F)(F)C(F)(F)F)OC | inactive

Exercise: Entry O=C(Cl)C(F)(F)C(F)(F)C(F)(F)C(F)(F)C(F)(F)C(F)(F)C(F)(F)F : call = ?
Key: active

Exercise: Entry CC(C)CC=C(C=O)c1ccccc1 : call = ?
Key: inactive

Exercise: Entry CCc1cccc(C)c1N(C(=O)C(=O)O)C(C)COC (centres undefined) : call = ?
Key: inactive

Exercise: Entry CCN(CC)c1ccc(C=O)c(O)c1 : call = ?
Key: inactive

* * *

target or test system: Peroxisome proliferator-activated receptor gamma (Homo sapiens)
measurement notes: ATG_PPARg_TRANS: Attagene TRANS-FACTORIAL HepG2 Assay for human Peroxisome Proliferator-activated Receptor-gamma (PPARg) (AID 2283007)
Results filed as inconclusive are left out. The source made the active and inactive calls. How the source made its calls: active means hit-call score of the fitted dose curve at least 0.9, where 1 is the maximum; inconclusive means response in the unintended direction; inactive means score below 0.9.
Returns: one label drawn from active, inactive

CC1CCCCC1 | inactive
CC(C)CCCC(C)CCO (configuration not stated) | inactive
OCC(F)(F)C(F)(F)C(F)(F)C(F)(F)C(F)(F)C(F)(F)C(F)(F)C(F)(F)CO | inactive

Exercise: Entry CCOC(OCC)OCC : call = ?
Key: inactive

* * *

target or test system: Oxysterols receptor LXR-alpha (Homo sapiens) (UniProt Q13133)
Sequence (Q13133 whole entry, looked up): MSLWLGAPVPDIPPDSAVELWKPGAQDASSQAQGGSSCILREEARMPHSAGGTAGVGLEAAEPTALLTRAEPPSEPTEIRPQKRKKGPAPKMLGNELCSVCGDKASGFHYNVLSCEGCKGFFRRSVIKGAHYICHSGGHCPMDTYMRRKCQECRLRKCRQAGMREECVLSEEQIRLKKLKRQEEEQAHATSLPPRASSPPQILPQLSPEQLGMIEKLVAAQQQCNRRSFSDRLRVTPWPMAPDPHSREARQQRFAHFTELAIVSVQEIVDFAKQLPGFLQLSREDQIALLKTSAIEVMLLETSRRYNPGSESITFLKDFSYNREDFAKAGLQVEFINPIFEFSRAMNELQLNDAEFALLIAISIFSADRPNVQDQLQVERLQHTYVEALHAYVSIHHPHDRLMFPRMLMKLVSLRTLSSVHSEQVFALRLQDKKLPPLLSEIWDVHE
measurement notes: ATG_LXRa_TRANS: Attagene TRANS-FACTORIAL HepG2 Assay for human Liver X Receptor alpha (LXRa) (AID 2282980)
test context: HepG2 Attagene TRANS reporter, LXRa transactivation
Records with an inconclusive call do not appear. Activity calls are given as the source filed them. The calls were made as follows: active = hit-call score of the fitted dose curve at least 0.9, where 1 is the maximum; inconclusive = response in the unintended direction; inactive = score below 0.9.
parameter: AC50

For orientation, consider the following solved cases.
C=CC(=O)OCC(F)(F)C(F)(F)C(F)(F)C(F)(F)C(F)(F)C(F)(F)C(F)(F)C(F)F | inactive
O=C(O)C(F)(F)C(F)(F)C(F)(F)OC(F)(F)F | inactive
OCC(F)(F)C(F)(F)C(F)(F)C(F)(F)C(F)(F)C(F)(F)C(F)(F)C(F)(F)CO | 10.5 µM (active)
O=C1C=CC(=O)N1c1ccc(Cc2ccc(N3C(=O)C=CC3=O)cc2)cc1 | inactive
Cc1cccc(C)n1 | inactive

Working through the 2 molecules below one at a time, give AC50 for each.
1. N#Cc1ccccc1O
2. NC(=O)C(F)(F)C(F)(F)C(F)(F)C(F)(F)C(F)(F)C(F)(F)C(F)(F)F

Key:
["inactive", "inactive"]

Working through the 6 molecules below one at a time, give AC50 for each.
1. FC(F)(F)C(F)(F)C(F)(F)C(F)(F)C(F)(F)C(F)(F)C(F)(F)CCI
2. Cc1cc(O)c(C(C)(C)C)cc1C(C)(C)C
3. Cc1cnccn1
4. CC(C)(C)C(=O)C1C(=O)c2ccccc2C1=O
5. CCC(C)CO (stereo not drawn)
6. CC(=O)C=O

Key:
inactive
2.99 µM (active)
inactive
inactive
inactive
inactive

* * *

Read-out: serum amyloid A (SAA), SAA1 (gene 6288)
measurement notes: BSK_CASM3C_SAA: BioMAP Diversity Plus: CASM3C Assay for serum amyloid A (SAA) Biomarker Activity (AID 2283049);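 also: SAA protein level quantified by ELISA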
test context: primary human coronary artery smooth muscle cells; actives raise or lower the signal
The source made the active and inactive calls. Rule for the calls: active = hit-call score of the fitted dose curve at least 0.9, where 1 is the maximum; inactive = score below 0.9.
parameter: outcome

For orientation, consider the following solved cases.
COC(F)(C(F)F)C(F)(F)F (configuration not stated) | inactive
OCCCCC(F)(F)C(F)(F)C(F)(F)C(F)(F)F | inactive
NCC(F)(F)C(F)(F)C(F)(F)C(F)(F)C(F)(F)C(F)(F)F | inactive
CCN(CC)c1ccc(N=Nc2ccccc2)cc1 | inactive
CCN(CC)c1ccc(C=O)cc1 | inactive
C[Si](Cl)(Cl)CCC(F)(F)C(F)(F)C(F)(F)C(F)(F)C(F)(F)C(F)(F)F | inactive

Shift focus to the following entry.
Record Cc1cnccn1 . Reported outcome: inactive

* * *

measurement notes: ATG_GLI_CIS: Attagene CIS-FACTORIAL HepG2 Assay for human Zinc Finger Protein GLI1 (AID 2282945)
test context: HepG2, Attagene cis-factorial reporter mRNA, GLI element; actives raise or lower the signal
Calls of active or inactive are those of the source. How the source made its calls: active means hit-call score of the fitted dose curve at least 0.9, where 1 is the maximum; inactive means score below 0.9.
Returns: one label drawn from active, inactive

Some entries whose results are on file:
NC(=O)C(F)(F)C(F)(F)C(F)(F)F | inactive
O=C(Cl)c1ccc(Cl)cc1Cl | inactive
O=C(O)C(F)(F)OC(F)(F)C(F)(F)OC(F)(F)C(F)(F)OC(F)(F)F | inactive

Exercise: Entry Cc1ccc(O)c(-n2nc3ccccc3n2)c1 : call = ?
Key: inactive

Exercise: Entry OCC1CCCO1 (stereo not given) : call = ?
Key: inactive

Exercise: Entry O=S(=O)(OCC(F)(F)F)C(F)(F)C(F)(F)C(F)(F)C(F)(F)F : call = ?
Key: inactive

* * *

target or test system: Estrogen receptor (Homo sapiens) (UniProt P03372)
Sequence (P03372 whole entry, looked up): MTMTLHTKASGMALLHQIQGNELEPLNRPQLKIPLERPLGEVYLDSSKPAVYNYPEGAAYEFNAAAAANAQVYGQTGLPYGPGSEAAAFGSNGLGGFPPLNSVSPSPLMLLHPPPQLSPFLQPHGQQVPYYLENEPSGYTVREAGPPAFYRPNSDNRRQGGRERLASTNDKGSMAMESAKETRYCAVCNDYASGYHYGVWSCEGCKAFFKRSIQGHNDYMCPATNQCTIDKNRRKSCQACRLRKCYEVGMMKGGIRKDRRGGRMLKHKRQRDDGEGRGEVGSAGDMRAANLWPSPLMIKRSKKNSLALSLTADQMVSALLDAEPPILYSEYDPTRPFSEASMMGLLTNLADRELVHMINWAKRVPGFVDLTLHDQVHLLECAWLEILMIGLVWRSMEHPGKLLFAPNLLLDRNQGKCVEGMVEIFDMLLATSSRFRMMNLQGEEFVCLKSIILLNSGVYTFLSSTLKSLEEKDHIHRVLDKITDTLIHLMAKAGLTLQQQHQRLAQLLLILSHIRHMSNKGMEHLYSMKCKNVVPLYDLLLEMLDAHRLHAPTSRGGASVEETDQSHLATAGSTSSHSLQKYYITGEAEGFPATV
measurement notes: OT_ERa_GFPERaERE_0120: Odyssey Thera (OT) 2-hour HeLa Transcription Induction Assay for Estrogen Receptor (AID 2283382)
Active and inactive are the calls of the source. How the source made its calls: active means hit-call score of the fitted dose curve at least 0.9, where 1 is the maximum; inconclusive means response in the unintended direction; inactive means score below 0.9.
Returns: one label drawn from y = active, n = inactive

CCC(Cc1c(I)cc(I)c(N)c1I)C(=O)O (stereo not drawn) | n

Exercise: Entry CCOC(OCC)OCC : call = ?
Key: n

Exercise: Entry OCC1CCCO1 (stereo not drawn) : call = ?
Key: n

Exercise: Entry N#Cc1ccccc1O : call = ?
Key: n

Exercise: Entry O=C(c1ccccc1)c1ccc(O)cc1O : call = ?
Key: y

Exercise: Entry CCCCCCCCn1sc(Cl)c(Cl)c1=O : call = ?
Key: n

Exercise: Entry CC(C)OC=O : call = ?
Key: n

Exercise: Entry Cc1ccc([N+](=O)[O-])c(C)c1 : call = ?
Key: n

* * *

target or test system: Retinoic acid receptor alpha (Homo sapiens)
measurement notes: ATG_DR5_RAR_CIS: Attagene CIS-FACTORIAL HepG2 Assay for human Retinoic Acid Receptor Alpha (RARE), DR5 submotif (AID 2282934)
test context: HepG2 Attagene cis-factorial RARE DR5 reporter, mRNA; actives raise or lower the signal
The source made the active and inactive calls. Rule for the calls: active = hit-call score of the fitted dose curve at least 0.9, where 1 is the maximum; inactive = score below 0.9.
Returns: one label drawn from true (1) = active, false (0) = inactive

Some entries whose results are on file:
NCC(F)(F)C(F)(F)C(F)(F)C(F)(F)C(F)(F)C(F)(F)C(F)(F)C(F)(F)F | false (0)
OCCCCC(F)(F)C(F)(F)C(F)(F)C(F)(F)F | false (0)
NC(=O)C(F)(F)C(F)(F)C(F)(F)F | false (0)
Cc1ccc([N+](=O)[O-])c(C)c1 | false (0)
CCOC(=O)CC(=O)C(F)(F)C(F)(F)F | false (0)
C=CCOC(=O)CC(C)C | false (0)
C[Si](Cl)(Cl)CCC(F)(F)C(F)(F)C(F)(F)C(F)(F)C(F)(F)C(F)(F)F | false (0)
O=C(O)C(F)(F)C(F)(F)C(F)(F)C(F)(F)C(F)(F)C(F)(F)C(F)F | false (0)

From here, focus on the item given below.
Exercise: Entry CCn1c2ccccc2c2ccccc21 : call = ?
Key: true (1)

* * *

Read-out: Collagen III, COL3A1 (gene 1281)
measurement notes: BSK_hDFCGF_CollagenIII: BioMAP Diversity Plus: hDFCGF Assay for Collagen III Biomarker Activity (AID 2283056)
test context: primary human foreskin fibroblasts; actives raise or lower the signal
Activity calls are given as the source filed them. Rule for the calls: active = hit-call score of the fitted dose curve at least 0.9, where 1 is the maximum; inactive = score below 0.9.
Returns: one label drawn from true (1) = active, false (0) = inactive

Some entries whose results are on file:
O=C1C=CC(=O)N1c1ccc(Cc2ccc(N3C(=O)C=CC3=O)cc2)cc1 | true (1)
C=C(C)C(=O)OCC(F)(F)C(F)(F)C(F)(F)C(F)F | false (0)
NCC(F)(F)C(F)(F)C(F)(F)C(F)(F)C(F)(F)C(F)(F)F | false (0)

Exercise: Entry O=C(Cl)C(F)(F)C(F)(F)C(F)(F)C(F)(F)C(F)(F)C(F)(F)F : call = ?
Key: false (0)

Exercise: Entry NC(=O)C(F)(F)C(F)(F)C(F)(F)C(F)(F)C(N)=O : call = ?
Key: false (0)

Exercise: Entry O=C=NCc1cccc(CN=C=O)c1 : call = ?
Key: false (0)

Exercise: Entry NC(=O)C(F)(F)C(F)(F)C(F)(F)C(F)(F)C(F)(F)C(F)(F)C(F)(F)F : call = ?
Key: false (0)
